biological target: T1, human insulin receptor (INSR) on CHOK1 cells (human, UniProt P06213 28-1382); experiment: flow cytometry on CHOK1 cells expressing the INSR ortholog; Fab, anti-human kappa FITC detection
T1 construct: whole, on cells; CHOK1 cells over-expressing human INSR; also called human INSR; hINSR
observable: EC50 (nM)
# value in nM; strip the unit string

Which measured EC50 value corresponds to XPA.15.247.2.014 Fab (Fab, V domains shown, Fab; also called XPA.15.247.014) VH: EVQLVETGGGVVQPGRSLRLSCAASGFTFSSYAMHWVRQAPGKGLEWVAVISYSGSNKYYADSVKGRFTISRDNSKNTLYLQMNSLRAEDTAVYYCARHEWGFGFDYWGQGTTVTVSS VL: DVVMTQSPLSLPVTLGQPASISCRSSQSLVYGDGNTYLNWFQQRPGQSPRRLIYKVSKRDSGVPDRFSGSGSGTDFTLKISRVEAEDVGVYYCMQGTYWPMTFGGGTKLEIKR ?
1.8
